Biological target: Muscarinic acetylcholine receptor M5 (Homo sapiens)
Sequence (whole entry): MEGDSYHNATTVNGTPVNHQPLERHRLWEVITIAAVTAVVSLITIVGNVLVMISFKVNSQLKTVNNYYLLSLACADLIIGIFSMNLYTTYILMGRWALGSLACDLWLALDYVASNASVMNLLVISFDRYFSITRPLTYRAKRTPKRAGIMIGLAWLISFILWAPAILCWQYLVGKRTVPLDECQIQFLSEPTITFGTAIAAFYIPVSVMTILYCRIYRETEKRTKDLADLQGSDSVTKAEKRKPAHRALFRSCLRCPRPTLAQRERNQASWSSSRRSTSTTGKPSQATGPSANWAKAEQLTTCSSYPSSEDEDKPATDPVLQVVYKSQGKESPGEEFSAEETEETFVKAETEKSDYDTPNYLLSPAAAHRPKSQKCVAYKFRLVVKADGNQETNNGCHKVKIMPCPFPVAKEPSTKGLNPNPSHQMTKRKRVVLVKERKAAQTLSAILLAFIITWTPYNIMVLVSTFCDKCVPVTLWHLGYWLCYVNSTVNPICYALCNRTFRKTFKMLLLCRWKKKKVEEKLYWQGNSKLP
Assay: Ability to stimulate biochemical responses in A9 L cell lines expressing Muscarinic acetylcholine receptor M5
Type: cell-based
Conditions: A9L
Mark each entry TRUE if its Activity sits below 30%, and FALSE for all others.

Check if Activity falls below 30% for CCCCCCOc1nsnc1C1=CCCN(C)C1 .
FALSE

Find out if reported Activity for COc1nsnc1OCCOCCOCCOCCOc1nsnc1C1=CCCN(C)C1 is less than 30%
TRUE

Confirm or reject: Activity of CC(=O)OCCCCCCCCCCCCOc1nsnc1C1=CCCN(C)C1 lies strictly below 30%
FALSE

I'd appreciate it if you could check whether CN1CCC=C(c2nsnc2OCCCCCCCCCCCCO)C1 has Activity smaller than 30%.
FALSE

Activity strictly < 30% for this molecule? COc1nsnc1OCCCCCCCCCCCCOc1nsnc1C1=CCCN(C)C1
TRUE

Hi there! Is Activity for CC(=O)OCCOCCOCCOCCOc1nsnc1C1=CCCN(C)C1 below 30%, do you know?
FALSE
